# System: UniProt P31645
# Sequence (P31645 whole entry): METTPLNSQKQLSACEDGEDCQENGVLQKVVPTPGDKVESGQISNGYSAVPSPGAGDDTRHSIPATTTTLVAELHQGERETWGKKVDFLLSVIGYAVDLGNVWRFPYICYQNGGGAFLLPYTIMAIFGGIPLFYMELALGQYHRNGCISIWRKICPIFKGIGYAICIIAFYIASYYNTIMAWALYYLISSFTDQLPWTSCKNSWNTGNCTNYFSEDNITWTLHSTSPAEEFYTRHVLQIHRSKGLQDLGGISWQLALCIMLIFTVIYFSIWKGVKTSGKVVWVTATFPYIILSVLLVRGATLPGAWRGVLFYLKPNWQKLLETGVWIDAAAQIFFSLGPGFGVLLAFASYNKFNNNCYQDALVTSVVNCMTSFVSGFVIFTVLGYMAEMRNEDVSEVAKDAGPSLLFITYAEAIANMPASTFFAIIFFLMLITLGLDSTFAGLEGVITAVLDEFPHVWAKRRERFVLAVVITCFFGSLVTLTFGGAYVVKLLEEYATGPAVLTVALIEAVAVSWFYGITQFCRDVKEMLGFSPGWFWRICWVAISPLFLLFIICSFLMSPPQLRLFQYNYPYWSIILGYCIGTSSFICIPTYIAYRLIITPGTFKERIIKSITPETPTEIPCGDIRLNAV
# Procedure summary: Displacement of [125I]RTI-55 from human SERT expressing HEK293 cells
# Format: cell-based
# Ki annotations

Compound: CCCCC(c1ccc(Cl)c(Cl)c1)C1CCCCN1 (stereo in doubt; form 2)
System: UniProt P31645
Ki: 1.1 µM
--
Compound: Clc1ccc(C(CCCc2ccccc2)C2CCCCN2)cc1 (stereo in doubt; form 2)
System: UniProt P31645
Ki: 1.5 µM
--
Compound: CC(C)CCC(c1ccc(Cl)cc1)C1CCCCN1 (stereo in doubt; form 2)
System: UniProt P31645
Ki: 6.7 µM
--
Compound: CC(c1ccc(Cl)cc1)C1CCCCN1 (stereo in doubt; form 1)
System: UniProt P31645
Ki: 4.9 µM
--
Compound: Clc1ccc(C(CCc2ccccc2)C2CCCCN2)cc1 (stereo not given)
System: UniProt P31645
Ki: 1.8 µM
--
Compound: CCC(CC)C(c1ccc(Cl)cc1)C1CCCCN1 (stereo in doubt; form 1)
System: UniProt P31645
Ki: 3.9 µM
--
Compound: CCCCCC(c1ccc(Cl)cc1)C1CCCCN1 (stereo in doubt; form 1)
System: UniProt P31645
Ki: 2.2 µM
--
Compound: CCCCCC(c1ccc(Cl)cc1)C1CCCCN1 (stereo in doubt; form 2)
System: UniProt P31645
Ki: 3.6 µM
--
Compound: CCCC(c1ccc(Cl)c(Cl)c1)C1CCCCN1 (stereo in doubt; form 1)
System: UniProt P31645
Ki: 1.8 µM
--
Compound: CC(=O)C(c1ccccc1)C1CCCCN1 (stereo not given)
System: UniProt P31645
Ki: 7.8 µM
